assay: Selectivity index, ratio of IC50 for HEK293T cells to MIC for Streptococcus pyogenes CMCC 32067; assay type: toxicity; details: human, read-out: Selectivity Index
endpoint: selectivity ratio
Hey, just send me the number, nothing else.

# annotated cases, reported selectivity ratio shown
# smiles entry, selectivity ratio
rows = [
    ("C/C(=N/NC(=N)N)c1cn(S(=O)(=O)c2ccc(C)cc2)c2ccccc12", 2.44),
    ("C/C(=N/NC(=N)N)c1cn(S(=O)(=O)c2ccc(C)cc2)c2ccc(Br)cc12", 0.2),
    ("N=C(N)N/N=C\\c1cn(S(=O)(=O)c2ccccc2)c2ccc(Br)cc12", 0.23),
]

Lab note: measured selectivity ratio of CC/C(=N/NC(=N)N)c1cn(S(=O)(=O)c2ccc(C)cc2)c2ccc(Br)cc12 was 0.42

###

system: Staphylococcus aureus; assay: Antibacterial activity against methicillin-resistant Staphylococcus aureus ATCC 33591 measured after 24 hrs by ELISA; type: functional; settings: ATCC 33591, 24 h
# MIC per entry
Just the number in µM, nothing appended.

# smiles entry, endpoint, units of measure, value
rows = [
    ("Cc1ccc(S(=O)(=O)n2cc(/C=N\\NC(=N)N)c3cc(Br)ccc32)cc1", "MIC", "µM", 1.15),
    ("COc1c(N2C[C@@H]3CCCN[C@@H]3C2)c(F)cc2c(=O)c(C(=O)O)cn(C3CC3)c12", "MIC", "µM", 0.62),
    ("Cc1onc(-c2ccccc2)c1C(=O)N[C@@H]1C(=O)N2[C@@H]1SC(C)(C)[C@@H]2C(=O)O", "MIC", "µM", 19.9),
]

// switching to the query compound
Lab note: measured MIC of CC/C(=N/NC(=N)N)c1cn(S(=O)(=O)c2ccc(C)cc2)c2ccc(Br)cc12 was 2.17

###

# MIC per entry
test system: Enterococcus faecalis; experiment: Antibacterial activity against Enterococcus faecalis CMCC 29212 measured after 24 hrs by ELISA; type: functional; settings: CMCC 29212, 24 h

# smiles entry, assayed target, MIC
data = [
    ("Cc1ccc(S(=O)(=O)n2cc(/C=N\\NC(N)=O)c3ccccc32)cc1", "Enterococcus faecalis", "> 360 µM"),
]

// switching to the query molecule
Lab note: measured MIC of Cc1ccc(S(=O)(=O)n2cc(/C=N\NC(N)=O)c3cc(Br)ccc32)cc1 was > 295 µM

###

assay: Selectivity index, ratio of IC50 for HEK293T cells to MIC for Escherichia coli CMCC 25922; format: toxicity; conditions: human, read-out: Selectivity Index
endpoint: selectivity ratio
Hey, just send me the number, nothing else.

# smiles entry, value
rows = [
    ("Cc1ccc(S(=O)(=O)n2cc(/C=N\\NC(=N)N)c3cc(Br)ccc32)cc1", 7.95),
    ("Cc1ccc(S(=O)(=O)n2cc(/C=N\\NC(=N)N)c3ccccc32)cc1", 7.68),
    ("C/C(=N/NC(=N)N)c1cn(S(=O)(=O)c2ccc(C)cc2)c2ccccc12", 2.44),
    ("C/C(=N/NC(=N)N)c1cn(S(=O)(=O)c2ccc(C)cc2)c2ccc(Br)cc12", 0.2),
    ("CC/C(=N/NC(=N)N)c1cn(S(=O)(=O)c2ccc(C)cc2)c2ccc(Br)cc12", 1.66),
]

Lab note: measured selectivity ratio of N=C(N)N/N=C\c1cn(S(=O)(=O)c2ccccc2)c2ccc(Br)cc12 was 7.5
